Where do the numbers come from? From patent US20200010479A1.

Lab note: pIC50 readings collected with E. coli GUS (Escherichia coli, UniProt P05804) for the following compounds.
Sequence (P05804 whole entry): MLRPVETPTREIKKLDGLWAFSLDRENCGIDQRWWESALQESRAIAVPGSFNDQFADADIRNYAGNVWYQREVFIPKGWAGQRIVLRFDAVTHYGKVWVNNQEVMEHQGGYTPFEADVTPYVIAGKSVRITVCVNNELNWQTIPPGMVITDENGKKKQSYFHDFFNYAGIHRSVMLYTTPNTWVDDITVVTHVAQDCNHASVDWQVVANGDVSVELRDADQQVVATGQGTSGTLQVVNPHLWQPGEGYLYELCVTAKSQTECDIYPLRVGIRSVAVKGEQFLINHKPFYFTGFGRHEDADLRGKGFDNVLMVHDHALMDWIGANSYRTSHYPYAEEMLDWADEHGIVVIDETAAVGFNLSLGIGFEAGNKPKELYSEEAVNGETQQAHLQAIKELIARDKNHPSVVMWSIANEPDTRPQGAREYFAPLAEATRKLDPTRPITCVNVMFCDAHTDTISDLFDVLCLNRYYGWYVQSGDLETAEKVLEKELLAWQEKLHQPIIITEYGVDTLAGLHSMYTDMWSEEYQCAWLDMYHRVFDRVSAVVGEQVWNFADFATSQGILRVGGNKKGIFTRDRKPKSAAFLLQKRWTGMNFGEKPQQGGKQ
Worth noting: pIC50 values are minus log10 of concentrations stated in mol/L.

// `c1ccc(-c2ccc3c(n2)sc2c(N4CCNCC4)nnnc23)cc1` : pIC50 value = 6.82

// `CNc1nc(N2CCNCC2)c2sc3nc(N4CCOCC4)ccc3c2n1` : pIC50 value = 7.00

// `CN(C)c1nc2sc3c(N4CCNCC4)nnnc3c2c2c1CCCC2` : pIC50 value = 6.89

// `c1ccc(-c2ccc3c(n2)sc2c(N4CCNCC4)ncnc23)cc1` : pIC50 value = 6.89

// `c1cnc2sc3c(N4CCNCC4)ncnc3c2c1` : pIC50 value = 7.10

// `C[C@H]1CN(c2nnnc3c2sc2nc(N4CCOCC4)c4c(c23)CCCC4)CCN1` : pIC50 value = 5.62

// `CNc1ccc2c(n1)sc1c(N3CCNCC3)nc(NC)nc12` : pIC50 value = 7.40

// `C1CCc2c(c(N3CCOCC3)nc3sc4c(N5CCNCC5)nnnc4c23)C1` : pIC50 value = 6.42

// `CN(C)c1nc(N2CCNCC2)c2sc3nc(-c4ccccc4)ccc3c2n1` : pIC50 value = 6.72

// `c1cc2c(nc1N1CCOCC1)sc1c(N3CCNCC3)nnnc12` : pIC50 value = 6.77

// `C1CCN(c2nc3sc4c(N5CCNCC5)nnnc4c3c3c2CCCC3)CC1` : pIC50 value = 6.30
